Biological target: T1, 4H607-bN
T1 chain: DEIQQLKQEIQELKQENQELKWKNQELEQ
Assay: two-hybrid library CCNG1;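 note: natural log of median RNA to DNA barcode read ratio; higher means stronger binding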
measured_property: interaction score

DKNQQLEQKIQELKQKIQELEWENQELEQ [4H3427-bN] : -0.874

a: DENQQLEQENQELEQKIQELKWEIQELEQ [4H1193-bN]
b: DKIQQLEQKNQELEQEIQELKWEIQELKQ [4H2442-bN]
c: DEIQQLEQKNQELKQEIQELEWKIQELKQ [4H454-bN]
// ascending sort on recorded interaction score Sort and list the labels as requested.
b, a, c
(b: -1.3, a: -0.718, c: 0.145)

I: DEIQQLEQKIQELKQKNQELEWEIQELKQ [4H370-bN]
II: DKNQQLKQEIQELEQENQELEWKIQELKQ [4H3606-bN]
III: DEIQQLEQKIQELKQENQELEWEIQELKQ [4H338-bN]
IV: DEIQQLKQEIQELEQKNQELEWKNQELKQ [4H568-bN]
Given 4 binders, produce a descending ranking by interaction score. Answer format: the labels, in the requested order.
II, IV, I, III
